B1: TPR 5TU (parent)
chain: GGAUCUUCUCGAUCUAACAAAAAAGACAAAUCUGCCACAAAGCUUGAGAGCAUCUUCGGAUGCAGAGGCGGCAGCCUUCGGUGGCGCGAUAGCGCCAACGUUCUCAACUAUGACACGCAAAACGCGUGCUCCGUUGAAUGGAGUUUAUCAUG

Variants of: B1
assay_name: polymerase ribozyme fitness, log enrichment relative to wild type (log ratio); higher = more active; in vitro selection for triplet polymerase activity
Fewer inactive variants are shown than the library holds.
measurement_label: polymerase ribozyme fitness (log ratio)

mutation_spec | operator | test_result
A28C G84U G88C A91G G124U | ≤ | -4.2
U45A G50A U55G C87G G94C | ≤ | -4.2
G81A C87U | = | -1.73
A28U G70U G83C C131U | ≤ | -4.2
A19U G83A | = | -0.555
C54A G83U | = | -1.19
C54U U61A A106G G152C | ≤ | -4.2
G48A C96A | = | -1.51
A66G G84A G141C | ≤ | -4.2
C35U U56A C95A C105U G126C | = | -1.08
A73G A142G | = | -1.38
A19U U55A A60G G94U G143U | = | -3.55
A16U A37U C79A C99U U139A A142U | ≤ | -4.2
C5A U9C C85A | = | -2.68
A12G A29G U55A C85U C96U C105U | ≤ | -4.2
U15G C27A | = | -4.13
G58A G143U | = | -1.82
U53A G58C A66C G84A A91G U102G A119U C132A | ≤ | -4.2
G42C U53A C79U C85G A89U C125U | ≤ | -4.2
C79U A89C | = | -3.38
A47C C57A G84A U101C | = | -0.765
A40U A60U | = | -0.238
A41G C76U G84U C85A A97U G100A G140U | ≤ | -4.2
C87U C118U U135G | ≤ | -4.2
C5U A20U C57U G68A C72U G92A | ≤ | -4.2
C10U A40G | = | -4.12
A41C A73G U145C | = | -1.73
C5G C35U G59C C87U G100U C125G G133A U145C | ≤ | -4.2
C35U G117C C118U | = | -1.01
A17U A19U C63U G68C C95U C96A G140A | ≤ | -4.2
U7C A16U G92C C116G | = | -3.77
A37C G86U C87U C108U A113G G117A | ≤ | -4.2
U6G A20C A22G A26C C57A C87A A120G | ≤ | -4.2
A29G A41C A47G C85G G92U U104G A137G G141U | ≤ | -4.2
C14U A91G | = | -3.98
C108U G133U | = | -3.96
G46A G50C A52C C69A | ≤ | -4.2
U55A G62A C96U | = | -2.14
A3C U9A G11A C35G C75A G117A U145C | ≤ | -4.2
C87G C99U | ≤ | -4.2
A52C C57A C69U C85U | = | -3.07
G71C U102G G133C G141C | ≤ | -4.2
C5U A41U G83A | = | -1.02
G46A G50A | = | -0.957
G81A A106U | = | -1.09
A30U C87U | = | -3.22
C93A A150C | = | -3.74
C10U U135A G141A C149G | ≤ | -4.2
A66G C85A A91G U148A | ≤ | -4.2
A19U U44A U53A A73U C85U G136A | ≤ | -4.2
C87A C125U | = | -4.14
C10G C69G G83C | ≤ | -4.2
G68C C93U A113U | ≤ | -4.2
U31G A52C G83A | = | -2.81
A20U A47U G70C G80C C85G C93A C108U A122G U144G | ≤ | -4.2
G50U C95A U109G | = | -3.26
A19G C32A A47C G59C C85U A106C G143C | ≤ | -4.2
G34A U55A G70U G80U G86A | ≤ | -4.2
A16C C18G U45G U61G | ≤ | -4.2
C10U G42C U53A A66G A91G A110C | ≤ | -4.2
A12G C63U U134A | = | -2.26
C10U A28U A52G U56A A73C C93U U145C C149G | ≤ | -4.2
C96G G141A | = | -0.288
U53C C118U C129G G141A | ≤ | -4.2
A29C C57G G71A U90C | ≤ | -4.2
G48C A120C | = | -0.573
U33G A52G U130G C131U G133U U146A | ≤ | -4.2
U56G A91G | = | -3.24
A29U C114U A137G G141A U148C | ≤ | -4.2
A26G G59U | = | -3.78
C51A G81A A147G U148G | ≤ | -4.2
G50A G136U | = | -2.96
G58A C93A G112C | = | -4.12
A26G U44G A47C A49C C72G C76G A91C C103G C105G | ≤ | -4.2
C8U A29G G62A C93U C95A U144A | ≤ | -4.2
A49C A52U A60G G94A A97G | = | -3.63
A49G G88U C96G U144C U148C U151G | ≤ | -4.2
G25U A30G C51A C105U G133C | ≤ | -4.2
A16G G34C C35A C54A C93A | ≤ | -4.2
U45A C93A G141A | = | -4.05
A40U U109A | = | -1.86
G83A A106G A119C | = | -0.0979
C43G G67U G83U C93G C103U C116A | ≤ | -4.2
U4A C93A | = | -1.38
C54G A97C G124A | = | -0.735
A39G G83A G117U A120C G152U | = | -4.11
U13G C85U A106G G126U G140C | = | -3.96
U31A A66C G67C G88A G141A U146G | ≤ | -4.2
A26U C85A | = | -2.68
A21U C38A C57U U102G A119U | ≤ | -4.2
U7G A21U C54A A66C A91C G136A | ≤ | -4.2
